ASSAY TARGET: P450 2A13 (Homo sapiens, UniProt Q16696)
Sequence (Q16696 whole entry): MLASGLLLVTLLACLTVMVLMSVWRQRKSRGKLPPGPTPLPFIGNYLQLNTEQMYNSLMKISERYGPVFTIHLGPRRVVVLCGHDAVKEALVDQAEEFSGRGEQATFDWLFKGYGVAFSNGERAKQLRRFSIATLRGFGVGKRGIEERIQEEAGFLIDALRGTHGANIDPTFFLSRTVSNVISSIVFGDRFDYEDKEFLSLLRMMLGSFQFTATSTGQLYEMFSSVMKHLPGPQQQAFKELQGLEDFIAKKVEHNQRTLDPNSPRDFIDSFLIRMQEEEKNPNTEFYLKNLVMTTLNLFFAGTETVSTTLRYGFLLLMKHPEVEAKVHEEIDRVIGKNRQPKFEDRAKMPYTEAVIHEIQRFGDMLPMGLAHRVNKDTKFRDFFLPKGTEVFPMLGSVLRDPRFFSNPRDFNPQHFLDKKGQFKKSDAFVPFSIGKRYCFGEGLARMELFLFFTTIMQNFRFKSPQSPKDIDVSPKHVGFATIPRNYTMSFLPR
METHOD: Spectral binding titration with P450 2A13
RECORDED CONDITIONS: P450 2A13
PROPERTY NAME: ΔAmax / Ks

The examples below pair each entry with its known result.
c1cc2c3c(cccc3c1)C1OC21 (stereo not shown) [1,2-epoxyacenaphthene, 1,2-Epoxyacenaphthene]	0.46
c1cc2c3c(cccc3c1)CC2 [acenaphthene]	0.15
OC1Cc2cccc3cccc1c23 (stereo not shown) [1-acenaphthenol]	0.13

// next entry
Q: Need ΔAmax / Ks, item C1=Cc2cccc3cccc1c23 [acenaphthylene]
Result: 0.081

====

ASSAY TARGET: P450 2A6 (Homo sapiens, UniProt P11509)
Sequence (P11509 whole entry): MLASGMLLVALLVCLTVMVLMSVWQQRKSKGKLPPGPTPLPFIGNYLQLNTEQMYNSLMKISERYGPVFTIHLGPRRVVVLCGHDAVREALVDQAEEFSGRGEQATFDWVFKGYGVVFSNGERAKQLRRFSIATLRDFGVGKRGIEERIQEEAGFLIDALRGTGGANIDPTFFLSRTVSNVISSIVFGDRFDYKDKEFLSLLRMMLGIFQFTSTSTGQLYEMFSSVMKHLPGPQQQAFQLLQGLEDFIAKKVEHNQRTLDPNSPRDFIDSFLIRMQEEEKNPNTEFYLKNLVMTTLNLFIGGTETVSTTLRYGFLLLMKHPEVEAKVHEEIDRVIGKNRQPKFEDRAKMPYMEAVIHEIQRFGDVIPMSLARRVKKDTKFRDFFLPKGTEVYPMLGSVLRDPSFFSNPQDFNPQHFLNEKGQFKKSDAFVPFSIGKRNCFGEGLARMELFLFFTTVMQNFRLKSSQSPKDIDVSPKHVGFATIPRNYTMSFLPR
PROPERTY NAME: Kd (nM)
The reply should contain only the number, in nM.

Q: // lookup Kd | system=P450 2A6 (Homo sapiens, UniProt P11509) | key= c1cc2c3c(cccc3c1)C1OC21 (stereo not shown) [1,2-epoxyacenaphthene, 1,2-Epoxyacenaphthene]
Result: 1780
